From: paper PMC4515825

Molecular target: pyridoxal kinase (PdxK) (Homo sapiens, UniProt O00764)
Sequence (O00764 1-312): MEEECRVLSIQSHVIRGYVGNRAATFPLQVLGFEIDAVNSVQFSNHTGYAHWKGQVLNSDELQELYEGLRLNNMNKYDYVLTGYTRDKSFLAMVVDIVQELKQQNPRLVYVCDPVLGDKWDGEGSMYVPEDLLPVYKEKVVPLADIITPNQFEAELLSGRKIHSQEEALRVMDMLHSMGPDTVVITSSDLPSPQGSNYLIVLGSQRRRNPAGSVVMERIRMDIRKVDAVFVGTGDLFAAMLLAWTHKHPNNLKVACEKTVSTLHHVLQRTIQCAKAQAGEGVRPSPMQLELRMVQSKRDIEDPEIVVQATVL
Assay: steady-state enzyme kinetics ([…] nm), Lineweaver-Burk and secondary plots
pKi: −log10 of the molar value.
Quantity Kind: pKi

Cc1ncc(C[n+]2csc(CCOP(=O)([O-])OP(=O)(O)O)c2C)c(N)n1 [thiamin diphosphate] :: 2.48
Cc1ncc(C[n+]2csc(CCO)c2C)c(N)n1 :: 2.66
